# Target of assay: Recombinant human his-tagged IGF R extracellular domain protein (human) (UniProt P08069)
# Protocol description: SPR, Ab captured via anti-huIgG Fc, pH 7.4
Reported property: koff (s⁻¹)

VRDN-02074 (antibody, V domains shown) VH: QVQLQESGPGLVKPSETLSLTCTVSGYSITGGYLWNWIRQPPGKGLEWIGYISYHGTNNYKPSLKDRVTISRDTSKNQFSLKLSSVTAADTAVYYCARHGRVFFDYWGQGTLVTVSS VL: DIVMTQSPLSLPVTPGEPASISCRSHQSIVHSNGNTYLQWYLQKPGQSPQLLIYKVSNRLYGVPDRFSGSGSGTDFTLKISRVEAEDVGVYYCFHGSHVPWTFGQGTKVEIK	3.98e-05
VRDN-02039 (antibody, V domains shown) VH: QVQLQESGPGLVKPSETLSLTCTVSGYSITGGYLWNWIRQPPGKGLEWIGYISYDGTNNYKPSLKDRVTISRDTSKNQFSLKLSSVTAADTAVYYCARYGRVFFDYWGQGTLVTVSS VL: DIVMTQSPLSLPVTPGEPASISCRSSQSIVHSNGHTYLQWYLQKPGQSPQLLIYKVSNRLYGVPDRFSGSGSGTDFTLKISRVEAEDVGVYYCFQGSHVPWTFGQGTKVEIK	5.26e-05
VRDN-02044 (antibody, V domains shown) VH: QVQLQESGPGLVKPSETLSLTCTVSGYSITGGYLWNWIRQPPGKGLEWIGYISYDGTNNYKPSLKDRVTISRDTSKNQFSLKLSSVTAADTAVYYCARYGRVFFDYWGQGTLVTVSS VL: DIVMTQSPLSLPVTPGEPASISCRSSQSIVHSNGNTYLQWYLQKPGQSPQLLIYHVSNRLYGVPDRFSGSGSGTDFTLKISRVEAEDVGVYYCFQGSHVPWTFGQGTKVEIK	4.69e-05
VRDN-02022 (antibody, V domains shown) VH: QVQLQESGPGLVKPSETLSLTCTVSGYSITGGYLWNWIRQPPGKGLEWIGYISYDGTNNYKPSLKDRVTISRDTSKNQFSLKLSSVTAADTAVYYCARYHRVFFDYWGQGTLVTVSS VL: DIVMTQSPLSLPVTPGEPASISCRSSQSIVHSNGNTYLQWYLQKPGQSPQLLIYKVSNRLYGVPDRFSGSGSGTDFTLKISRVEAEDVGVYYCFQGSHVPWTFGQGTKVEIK	0.000775
VRDN-02053 (antibody, V domains shown) VH: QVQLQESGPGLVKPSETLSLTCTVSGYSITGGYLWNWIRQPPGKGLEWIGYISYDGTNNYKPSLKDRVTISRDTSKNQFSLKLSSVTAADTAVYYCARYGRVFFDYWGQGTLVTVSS VL: DIVMTQSPLSLPVTPGEPASISCRSSQSIVHSNGNTYLQWYLQKPGQSPQLLIYKVSNRLYGVPDRFSGSGSGTDFTLKISRVEAEDVGVYYCFQHSHVPWTFGQGTKVEIK	0.00243
VRDN-02012 (antibody, V domains shown) VH: QVQLQESGPGLVKPSETLSLTCTVSGYSITGGYLWNWIRQPPGKGLEWIGHISYDGTNNYKPSLKDRVTISRDTSKNQFSLKLSSVTAADTAVYYCARYGRVFFDYWGQGTLVTVSS VL: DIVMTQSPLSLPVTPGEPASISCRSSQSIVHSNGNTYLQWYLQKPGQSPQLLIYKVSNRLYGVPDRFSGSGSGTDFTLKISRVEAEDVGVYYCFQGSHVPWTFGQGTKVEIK	5.41e-05
VRDN-02067 (antibody, V domains shown) VH: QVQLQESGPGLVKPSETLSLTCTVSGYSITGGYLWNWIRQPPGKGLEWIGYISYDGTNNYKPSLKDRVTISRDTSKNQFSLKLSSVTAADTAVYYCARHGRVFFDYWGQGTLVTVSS VL: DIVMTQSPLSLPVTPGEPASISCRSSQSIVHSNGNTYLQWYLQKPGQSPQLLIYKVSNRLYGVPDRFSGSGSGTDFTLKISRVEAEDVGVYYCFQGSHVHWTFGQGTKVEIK	2.75e-05
VRDN-02015 (antibody, V domains shown) VH: QVQLQESGPGLVKPSETLSLTCTVSGYSITGGYLWNWIRQPPGKGLEWIGYISHDGTNNYKPSLKDRVTISRDTSKNQFSLKLSSVTAADTAVYYCARYGRVFFDYWGQGTLVTVSS VL: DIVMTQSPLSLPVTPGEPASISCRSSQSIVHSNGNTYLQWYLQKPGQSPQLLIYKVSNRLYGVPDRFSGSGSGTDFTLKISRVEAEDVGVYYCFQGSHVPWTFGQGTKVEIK	4.57e-05
VRDN-02002 (antibody, V domains shown) VH: QVQLQESGPGLVKPSETLSLTCTVSGHSITGGYLWNWIRQPPGKGLEWIGYISYDGTNNYKPSLKDRVTISRDTSKNQFSLKLSSVTAADTAVYYCARYGRVFFDYWGQGTLVTVSS VL: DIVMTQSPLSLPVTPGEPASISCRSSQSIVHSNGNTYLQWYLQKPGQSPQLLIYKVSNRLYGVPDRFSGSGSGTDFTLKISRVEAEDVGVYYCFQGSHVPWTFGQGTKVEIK	0.000104
VRDN-02021 (antibody, V domains shown) VH: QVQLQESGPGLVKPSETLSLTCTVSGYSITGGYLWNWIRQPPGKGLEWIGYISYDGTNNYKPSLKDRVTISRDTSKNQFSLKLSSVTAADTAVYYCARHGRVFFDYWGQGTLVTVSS VL: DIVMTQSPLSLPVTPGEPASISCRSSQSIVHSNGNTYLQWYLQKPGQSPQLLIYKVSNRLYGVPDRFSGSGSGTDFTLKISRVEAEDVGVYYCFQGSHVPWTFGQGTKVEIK	5.84e-05
